Data origin, for the record: the supplement of paper PMC9732359

Here, each record is paired with measured protein stability index data.
Test: protein stability index of a GFP-peptide fusion (yeast GPS) (PSI 1-4); higher = more stable; sorted into four equal gates, so the index is relative within each strain
Details: ubr1∆
readoutName: protein stability index

biosequence="IGLDTQQVEGKLSQMIL [RPN6]" readoutname="protein stability index" resultnumber=3.06
biosequence="AMANAPGNNIPYMNHKN [GAL11]" readoutname="protein stability index" resultnumber=2.75
biosequence="LSIWIKNYPEYFLKVTF [IRR1]" readoutname="protein stability index" resultnumber=1.8
biosequence="TIFNLPKNKLVPTLEAK [FAS1]" readoutname="protein stability index" resultnumber=3.01
biosequence="KAPKIQRLVTPQRLQRK [RPS6A]" readoutname="protein stability index" resultnumber=2.94
biosequence="PFTDITVEGISKLLREH [RPB2]" readoutname="protein stability index" resultnumber=2.42
biosequence="ETISNVAKTAPNSNKTH [SNF2]" readoutname="protein stability index" resultnumber=3.07
biosequence="EYADNDEDKFKKLKPIV [PRP28]" readoutname="protein stability index" resultnumber=2.64
biosequence="SKLSKNISFYKLHVNWN [SIN4]" readoutname="protein stability index" resultnumber=2.04
biosequence="YFLHLSVFNAELLKLLN [YCS4]" readoutname="protein stability index" resultnumber=1.51
biosequence="DLTFKLADILKANISLE [RPO21]" readoutname="protein stability index" resultnumber=2.32
biosequence="DDIFIRYLTLLSNEFTA [ECM29]" readoutname="protein stability index" resultnumber=1.76
biosequence="LRKIDMLQKKLVEVEDE [SRB7]" readoutname="protein stability index" resultnumber=3.36
biosequence="AGRGFTLAEVKAAGLTA [RPL13A]" readoutname="protein stability index" resultnumber=1.77
biosequence="FRFQGGIIVAVDSRATA [PRE2]" readoutname="protein stability index" resultnumber=1.62
